# Assay Method Text: Intravenous and oral dosing pharmacokinetic screen, plasma concentration by LC/MS/MS
# Parameters: species or system C57BL/6 mice
# Protocol Conditions: male, C57BL/6, mouse, in vivo, iv, 3 mg/kg, Tucaresol concentration
# Procedure: Tucaresol, Compound B02, Compound C01, Compound C02-1, and Compound C02 were dosed once, by IV bolus (3 mg/kg in 20% hydroxyprophyl-13-cyclodextrin with 1 eq NaOH) or PO (10 mg/kg in 1% carboxymethylcellulose/0.1% tween-80 in water), to non-fasted male C57BL/6 mice. […] The plasma concentration of the dosed tucaresol or compound were measured by LC/MS/MS (I-CMS-8060 instrument for MS). PK parameters were then calculated with WinNonlin 6.1. […]
Quantity: concentration at 0.25 h (ng/mL)
Response body: numeric value in ng/mL, unit text excluded.

Problem: Which value of concentration at 0.25 h has been reported for `O=Cc1c(O)cccc1OCc1ccc(C(=O)O)cc1` in the records?
Result: 1240

###

# Assay Method Text: Pharmacokinetics of tucaresol after a single dose in healthy subjects
# Protocol Conditions: human, plasma, 800 mg, tmax; single dose 800 mg; single subjects
Quantity: Tmax
# number then unit; no other words

Problem: What value of measured Tmax is listed for `O=Cc1c(O)cccc1OCc1ccc(C(=O)O)cc1` ?
Result: 4 h

###

# Assay Method Text: Pharmacokinetics of tucaresol after a single dose in healthy subjects
# Protocol Conditions: human, plasma, 3600 mg, tmax, Mean; single dose 3600 mg
Quantity: Tmax (h)
I only need the number, in h, no unit after it.

Problem: I'd like to know its Tmax. The molecule in question is O=Cc1c(O)cccc1OCc1ccc(C(=O)O)cc1 [Tucaresol]
Result: 10

###

# Assay Method Text: Pharmacokinetics of tucaresol after a single dose in healthy subjects
# Protocol Conditions: human, plasma, 1200 mg, tmax, Mean; single dose 1200 mg
Quantity: Tmax (h)
Your answer should be a plain number; it is taken to be in h.

Problem: Item `O=Cc1c(O)cccc1OCc1ccc(C(=O)O)cc1` has what recorded Tmax?
Result: 6.5

###

# Assay Method Text: Intravenous and oral dosing pharmacokinetic screen, plasma concentration by LC/MS/MS
# Design: species or system C57BL/6 mice
# Protocol Conditions: male, C57BL/6, mouse, in vivo, iv, 3 mg/kg, B02 concentration, Mean
Quantity: concentration at 8 h (ng/mL)
I only need the number, in ng/mL, no unit after it.

Problem: Return reported concentration at 8 h; argument: CO/N=C/c1c(O)cccc1OCc1ccc(C(=O)O)cc1 [Compound B02]
Result: 18

###

# Assay Method Text: Intravenous and oral dosing pharmacokinetic screen, plasma concentration by LC/MS/MS
# Design: species or system C57BL/6 mice
# Protocol Conditions: male, C57BL/6, mouse, in vivo, iv, 3 mg/kg, B02 concentration
Quantity: concentration at 2 h
// unit must come after the numeric part

Problem: Record request: concentration at 2 h value, item CO/N=C/c1c(O)cccc1OCc1ccc(C(=O)O)cc1 [Compound B02]
Result: 179 ng/mL

###

# Assay Method Text: Pharmacokinetics of tucaresol after a single dose in healthy subjects
# Protocol Conditions: human, plasma, 400 mg, t1/2,z; single dose 400 mg; single subjects
Quantity: half-life
Field: value (include unit after the number)

Problem: Need half-life of `O=Cc1c(O)cccc1OCc1ccc(C(=O)O)cc1` , thanks.
Result: 133 h

###

# Assay Method Text: Pharmacokinetics of tucaresol after a single dose in healthy subjects
# Protocol Conditions: human, plasma, 2800 mg, AUC; single dose 2800 mg; single subjects
Quantity: AUC (µg·h/mL)
Report the figure in µg·h/mL without appending any unit label.

Problem: Can you share its AUC? I mean this compound: `O=Cc1c(O)cccc1OCc1ccc(C(=O)O)cc1`
Result: 12900

###

# Assay Method Text: Intravenous and oral dosing pharmacokinetic screen, plasma concentration by LC/MS/MS
# Set-up: species or system C57BL/6 mice
# Protocol Conditions: male, C57BL/6, mouse, in vivo, po, 10 mg/kg, Tucaresol concentration, Mean
Quantity: concentration at 0.25 h (ng/mL)
Use ng/mL as the unit, but write only the number.

Problem: Look up concentration at 0.25 h for this compound: `O=Cc1c(O)cccc1OCc1ccc(C(=O)O)cc1`
Result: 3040

###

# Assay Method Text: Pharmacokinetics of tucaresol after a single dose in healthy subjects
# Protocol Conditions: human, plasma, 3600 mg, tmax; single dose 3600 mg; single subjects
Quantity: Tmax
Just the number plus its unit, please.

Problem: Requested read-out: Tmax. Entry: `O=Cc1c(O)cccc1OCc1ccc(C(=O)O)cc1`
Result: 6.08 h

###

# Assay Method Text: Intravenous and oral dosing pharmacokinetic screen, plasma concentration by LC/MS/MS
# Design: species or system C57BL/6 mice
# Protocol Conditions: male, C57BL/6, mouse, in vivo, po, 10 mg/kg, B02 concentration, Mean
Quantity: concentration at 4 h (µg/mL)
Only the number, expressed in µg/mL, is required.

Problem: For `CO/N=C/c1c(O)cccc1OCc1ccc(C(=O)O)cc1` , what is its reported concentration at 4 h?
Result: 0.412

###

# Assay Method Text: Intravenous and oral dosing pharmacokinetic screen, plasma concentration by LC/MS/MS
# Design: species or system C57BL/6 mice
# Protocol Conditions: male, C57BL/6, mouse, in vivo, po, 10 mg/kg, B02 concentration, Mean
# Experimental: Tucaresol, Compound B02, Compound C01, Compound C02-1, and Compound C02 were dosed once, by IV bolus (3 mg/kg in 20% hydroxyprophyl-13-cyclodextrin with 1 eq NaOH) or PO (10 mg/kg in 1% carboxymethylcellulose/0.1% tween-80 in water), to non-fasted male C57BL/6 mice. […] The plasma concentration of the dosed tucaresol or compound were measured by LC/MS/MS (I-CMS-8060 instrument for MS). PK parameters were then calculated with WinNonlin 6.1. […]
Quantity: concentration at 1 h (ng/mL)
Use ng/mL as the unit, but write only the number.

Problem: Look at this compound and give its reported concentration at 1 h. `CO/N=C/c1c(O)cccc1OCc1ccc(C(=O)O)cc1`
Result: 674

###

# Assay Method Text: Intravenous and oral dosing pharmacokinetic screen, plasma concentration by LC/MS/MS
# Parameters: species or system C57BL/6 mice
# Protocol Conditions: male, C57BL/6, mouse, in vivo, iv, 3 mg/kg, Tucaresol concentration
Quantity: concentration at 0.5 h (µg/mL)
Answer format: numeric, µg/mL implied, no suffix.

Problem: For the molecule O=Cc1c(O)cccc1OCc1ccc(C(=O)O)cc1 [Tucaresol] , what concentration at 0.5 h is on record?
Result: 0.972

###

# Assay Method Text: Intravenous and oral dosing pharmacokinetic screen, plasma concentration by LC/MS/MS
# Design: species or system C57BL/6 mice
# Protocol Conditions: male, C57BL/6, mouse, in vivo, iv, 3 mg/kg, Tucaresol concentration, Mean
Quantity: concentration at 1 h
Returns: string containing the numeric result and its unit.

Problem: # input compound: `O=Cc1c(O)cccc1OCc1ccc(C(=O)O)cc1` ; wanted: its concentration at 1 h
Result: 707 ng/mL

###

# Assay Method Text: Pharmacokinetics of tucaresol after a single dose in healthy subjects
# Protocol Conditions: human, plasma, 2000 mg, AUC, Mean; single dose 2000 mg
Quantity: AUC (µg·h/mL)
Value expressed in µg·h/mL; do not type the unit.

Problem: So what's the measured AUC for this one? `O=Cc1c(O)cccc1OCc1ccc(C(=O)O)cc1`
Result: 14800

###

# Assay Method Text: Intravenous and oral dosing pharmacokinetic screen, plasma concentration by LC/MS/MS
# Design: species or system C57BL/6 mice
# Protocol Conditions: male, C57BL/6, mouse, in vivo, po, 10 mg/kg, B02 concentration, Mean
Quantity: concentration at 0.5 h (ng/mL)
Answer with a number only, understood to be in ng/mL.

Problem: Record request: concentration at 0.5 h value, item `CO/N=C/c1c(O)cccc1OCc1ccc(C(=O)O)cc1`
Result: 2650

###

# Assay Method Text: Pharmacokinetics of tucaresol after a single dose in healthy subjects
# Protocol Conditions: human, plasma, 400 mg, AUC; single dose 400 mg; single subjects
Quantity: AUC (µg·h/mL)
Just the number please, in µg·h/mL, no unit attached.

Problem: Quick one: AUC of `O=Cc1c(O)cccc1OCc1ccc(C(=O)O)cc1` ?
Result: 2830

###

# Assay Method Text: Intravenous and oral dosing pharmacokinetic screen, plasma concentration by LC/MS/MS
# Design: species or system C57BL/6 mice
# Protocol Conditions: male, C57BL/6, mouse, in vivo, po, 10 mg/kg, Tucaresol concentration
Quantity: concentration at 4 h (ng/mL)
// return numeric value only (unit: ng/mL, not printed)

Problem: Quick one: concentration at 4 h for `O=Cc1c(O)cccc1OCc1ccc(C(=O)O)cc1` ?
Result: 603

###

# Assay Method Text: Pharmacokinetics of tucaresol after a single dose in healthy subjects
# Protocol Conditions: human, plasma, 3600 mg, AUC; single dose 3600 mg; single subjects
Quantity: AUC (µg·h/mL)
Give the value, in units of µg·h/mL, as a plain number.

Problem: Find the recorded AUC belonging to `O=Cc1c(O)cccc1OCc1ccc(C(=O)O)cc1` and report it.
Result: 25400
